Data provenance: ChEMBL document CHEMBL1201862

- Tested on: NCI-H522
- method: NCI tumour cell line growth inhibition, 48 h
Activity calls are given as the source filed them. Cut-off read from the data, not from the text of the source: active = GI50 up to about 1.1 µM and inactive = higher.
Write down the outcome that applies. Available outcomes: active, inactive

In: Recorded test outcome, item C=C[C@@H]1C[C@]2(C(=O)OC)Cc3nc4ccccc4nc3CC(C(=O)OC)=C2O1
Out: inactive

In: Recorded test outcome, item O=C(Nc1nn(C(=O)c2ccc(Cl)cc2)c(=O)s1)c1ccc(Cl)cc1
Out: inactive

In: Recorded test outcome, item O=C1[C@H]2ON(c3ccccc3)C(c3ccc(Cl)cc3Cl)[C@H]2C(=O)N1c1ccc(Cc2ccc(N3C(=O)[C@@H]4ON(c5ccccc5)C(c5ccc(Cl)cc5Cl)[C@@H]4C3=O)cc2)cc1 (stereo not given in full)
Out: inactive

In: Recorded test outcome, item CCN(CC)c1ccc2c(c1)OC(=O)C(c1nnc(-c3ccc([N+](=O)[O-])cc3)o1)C2 (stereo not given)
Out: inactive

In: Recorded test outcome, item CCOC(=O)C1=C(Nc2ccc(Cl)c(Cl)c2)OC/C1=N\NC(=O)Cc1ccccc1
Out: inactive

In: Recorded test outcome, item CCOC(=O)C1(C(=O)OCC)C=C(c2ccccc2)N(C2OC(COC(C)=O)C(OC(C)=O)C(OC(C)=O)C2OC(C)=O)C1=S (stereo not given)
Out: inactive

In: Recorded test outcome, item Cc1ccc(C(=O)Nc2ncn(C3CC(O)C(CO)O3)c(=O)n2)cc1 (stereo not given)
Out: inactive

In: Recorded test outcome, item COc1ccc2c(c1)/C(=C\c1c(-c3ccccc3)nc3n1CCS3)C(=O)N2
Out: inactive

* * *

- System: NCI/ADR-RES
- method: NCI tumour cell line growth inhibition, 48 h
Calls of active or inactive are those of the source. Rule as the data show it: active = GI50 up to about 1.1 µM and inactive = higher.
Below, each of the compounds is paired with its reported GI50 value.

Below are worked cases with known answers.
[[record]]
compound = "CC1OC(OC2C(CO)OC(O[C@H]3CC[C@@]4(C)C(=CC[C@H]5[C@@H]6C[C@@H]7O[C@](O)(CC[C@@H](C)COC8OC(CO)C(O)C(O)C8O)[C@@H](C)[C@@H]7[C@@]6(C)CC[C@@H]54)C3)C(OC3OC(C)C(O)C(O)C3O)C2O)C(O)C(O)C1O (stereo partly specified)"
tested_target = "NCI/ADR-RES"
quantity_measured = "GI50"
measurement = "2.06 µM (inactive)"

[[record]]
compound = "COc1c2c(cc3c1OCO3)[C@]13C=C[C@H](OC)C[C@H]1N(C2)CC3O (stereo partly specified)"
tested_target = "NCI/ADR-RES"
quantity_measured = "GI50"
measurement = "> 100 µM (inactive)"

[[record]]
compound = "CC(C)(C)C1CCC(=O)/C(=C/CC2CC(=O)N(c3ccccc3)C(=O)C2)C1 (stereo unspecified)"
tested_target = "NCI/ADR-RES"
quantity_measured = "GI50"
measurement = "17.8 µM (inactive)"

[[record]]
compound = "C/C=C(\\C)[C@@H](O)C(=O)O[C@@H]1CC(C(C)(C)O)[C@](C)(CCC(=O)OC)[C@H]2[C@H](OC(=O)[C@H](O)[C@H](C)CC)C[C@]3(C)C(=CC[C@H]3[C@H]3CO[C@H](C=C(C)C)C3)[C@]12C (stereo partly specified)"
tested_target = "NCI/ADR-RES"
quantity_measured = "GI50"
measurement = "16.4 µM (inactive)"

[[record]]
compound = "O=C(O)c1[nH]c2c([N+](=O)[O-])cc([N+](=O)[O-])cc2c1C(=O)O"
tested_target = "NCI/ADR-RES"
quantity_measured = "GI50"
measurement = "> 100 µM (inactive)"


In: Query (compound): CC(C)=C1C(=O)c2c(Cl)sc(Cl)c2C1=O ; field requested: GI50
Out: 24 µM (inactive)

* * *

- Test system: NCI-H226
- method: NCI tumour cell line growth inhibition, 48 h
The source made the active and inactive calls. Rule as the data show it: active = GI50 up to about 1.1 µM and inactive = higher.
Write down the outcome that applies. Available outcomes: Y (active), N (inactive)

[[record]]
compound = "O=C1CC2C(=O)c3ccccc3CC2c2ccccc21 (stereo not given)"
tested_target = "NCI-H226"
group = "N"

[[record]]
compound = "C=C1C(=O)OC2/C=C(\\C)C3OC3/C=C(/C(=O)OC)C(OC(C)=O)C(OC(=O)C(C)(O)C(C)OC(C)=O)C12 (stereo not given)"
tested_target = "NCI-H226"
group = "N"

[[record]]
compound = "Cc1ccc(C(=O)Nc2ncn(C3CC(O)C(CO)O3)c(=O)n2)cc1 (stereo not given)"
tested_target = "NCI-H226"
group = "N"


In: Recorded test outcome, item COC(=O)[C@]12CSC[C@H]1C[C@H](c1ccccc1OC)N2
Out: N

In: Recorded test outcome, item Cn1c(-c2ccccc2)cc(-c2cccs2)c1-c1ccsc1
Out: N

In: Recorded test outcome, item O=C(O)C(CO)NC(=O)C1C(C(=O)O)C(c2ccccc2[N+](=O)[O-])C=C(c2ccco2)N1c1ccncc1 (stereo not given)
Out: N

In: Recorded test outcome, item Cc1nc(C)c(N2CCNCC2)c(O)n1
Out: N

In: Recorded test outcome, item c1ccc(-c2ccnc3c2ccc2c(-c4ccccc4)ccnc23)cc1
Out: N

In: Recorded test outcome, item O=C1CSC2(CC(/C=C/c3ccccc3)=NN2c2cccc(S(=O)(=O)O)c2)N1c1nc2ccccc2s1 (stereo not given)
Out: N

In: Recorded test outcome, item COCN1C(=O)[C@@H]2CCCN2C(=O)c2ccc(N)cc21
Out: N

In: Recorded test outcome, item C/C(=N\Nc1nc2ccccc2o1)c1ncccn1
Out: Y

In: Recorded test outcome, item CCCCCCCCCCCCOC1C(COCCN2CCCCC2)OC2OC(C)(C)OC21 (stereo not given)
Out: N

In: Recorded test outcome, item C=C1CCC2[C@](C)(CCC[C@]2(C)C(=O)O)[C@@H]1CCc1ccoc1 (stereo not given in full)
Out: N

* * *

Below, each of the molecules is paired with its reported GI50 value.
- Tested on: NCI-H23
- method: NCI tumour cell line growth inhibition, 48 h
The source made the active and inactive calls. Cut-off read from the data, not from the text of the source: active = GI50 up to about 1.1 µM and inactive = higher.

Below are worked cases with known answers.
[[record]]
molecule = "Cc1ccsc1/C=N/Nc1ccc2ccccc2n1"
quantity_measured = "GI50"
measurement = "51.1 µM (inactive)"

[[record]]
molecule = "Cc1cc2oc(=O)[nH]c(=S)c2c(C)c1C"
quantity_measured = "GI50"
measurement = "> 100 µM (inactive)"


In: Query (molecule): COc1ccc(N2C=Nn3c(nc4sc5c(c4c3=O)CCCC5)C2)cc1 ; field requested: GI50
Out: 26.1 µM (inactive)

In: Query (molecule): C=CCN1C[C@@H](C)N([C@@H](c2ccccc2)c2ccc(C(=O)N(CC)CC)cc2)C[C@@H]1C ; field requested: GI50
Out: > 100 µM (inactive)

In: Query (molecule): CCOC(C)O[C@H]1C(=O)OCC1(C)C (stereo partly drawn) ; field requested: GI50
Out: > 100 µM (inactive)

In: Query (molecule): CC[C@@H](/C=C\CCC1(C[C@@H](N)CCC=C(C)C)OCCO1)O[Si](C(C)C)(C(C)C)C(C)C ; field requested: GI50
Out: 21.1 µM (inactive)

In: Query (molecule): O=[N+]([O-])c1ccc(S(=O)(=O)Cc2ccccc2)c2nonc12 ; field requested: GI50
Out: 19.1 µM (inactive)

In: Query (molecule): O=C1Oc2ccccc2N/C1=C/C(=O)c1ccc(Cl)cc1 ; field requested: GI50
Out: > 100 µM (inactive)

In: Query (molecule): O=[N+]([O-])O ; field requested: GI50
Out: > 100 µM (inactive)

In: Query (molecule): Cc1nccn1S(=O)(=O)c1ccc(Br)cc1Br ; field requested: GI50
Out: 36.1 µM (inactive)

In: Query (molecule): CN1CCN(CC(=O)N2c3ccccc3Sc3cc4ccccc4cc32)CC1 ; field requested: GI50
Out: 19.7 µM (inactive)

In: Query (molecule): CCCCON1C[C@H](OC(C)=O)C(OC(C)=O)[C@H](OC(C)=O)C1 (stereo partly drawn) ; field requested: GI50
Out: > 100 µM (inactive)

In: Query (molecule): CSc1n[n+]2c(s1)SCCC2 ; field requested: GI50
Out: > 100 µM (inactive)

In: Query (molecule): COc1ccc(C2C3CCc4ccccc4C3=NN2S(=O)(=O)c2ccc(Cl)cc2)cc1 (stereo not drawn) ; field requested: GI50
Out: 33.3 µM (inactive)

In: Query (molecule): c1ccc(-c2ccnc3c2ccc2c(-c4ccccc4)ccnc23)cc1 ; field requested: GI50
Out: 1.85 µM (inactive)

In: Query (molecule): COc1ccc(C2C(Cl)C(=O)N2NC(=O)Cc2ccccc2)cc1OC (stereo not drawn) ; field requested: GI50
Out: > 100 µM (inactive)

In: Query (molecule): COCCN1C(=O)C2c3[nH]c4ccccc4c3C3CCC(C(C)(C)C)CC3C2C1=O (stereo not drawn) ; field requested: GI50
Out: 22.6 µM (inactive)

In: Query (molecule): COc1ccc(C(=O)CCN(C)C)c2ccccc12 ; field requested: GI50
Out: 20.8 µM (inactive)
